molecular target: HLA-A*02:01 (Homo sapiens, UniProt P04439, D140Y/D185E/D98H/E176V/E277Q/G131W/G231S/I119V/I121R/I166T/I218V/L300P/L318F/N151K/N90K/P208A/P217A/Q86G/Q94H/R138H/R169H/T345S); assay: MHC binding assay (UV-ligand exchange, beta2m ELISA); details: binding to HLA-A*02:01 ranged by peptide exchange yield (UV-ligand exchange, β2m ELISA)
readout.label: Peptide exchange

Consider the reported Peptide exchange for these substances:
> print(dat)
                                  substance                result
1  489 (KMWEELPEVV; listed as Homo sapiens) [compound 489]     “+++” (≥50 = +++)
2  306 (ALVNVQIPL; listed as Homo sapiens) [compound 306]     “+++” (≥50 = +++)
3  561 (YLQLTQSEL; listed as Homo sapiens) [compound 561]     “+++” (≥50 = +++)
4  52 (FLLAHGLGFLL; listed as Homo sapiens) [compound 52]  “++++” (≥75% = ++++)
5  530 (VMYADIGGMDI; listed as Homo sapiens) [compound 530]     “+++” (≥50 = +++)
6  317 (SLAALVVHV; listed as Homo sapiens) [compound 317]     “+++” (≥50 = +++)
7  88 (FLLVGDLMAV; listed as Homo sapiens) [compound 88]     “+++” (≥50 = +++)
8  62 (VLLDVSAGQLLM; listed as Homo sapiens) [compound 62]  “++++” (≥75% = ++++)

Now for another entry.
Input: What value of Peptide exchange has been reported for the following substance? 383 (ALLELENSVTL; listed as Homo sapiens) [compound 383]
Output: “+++” (≥50 = +++)

---

target: HLA-A*02:01 (Homo sapiens, UniProt P04439, D140Y/D185E/D98H/E176V/E277Q/G131W/G231S/I119V/I121R/I166T/I218V/L300P/L318F/N151K/N90K/P208A/P217A/Q86G/Q94H/R138H/R169H/T345S); assay: MHC binding assay (UV-ligand exchange, beta2m ELISA); settings: binding to HLA-A*02:01 ranged by peptide exchange yield (UV-ligand exchange, β2m ELISA)
readout.label: Peptide exchange

> print(dat)
                                  substance     readout.label             result
1  335 (YSLSSVVTV; listed as Homo sapiens) [compound 335]  Peptide exchange  “+++” (≥50 = +++)
2  12 (SLWPDPMEV; listed as Homo sapiens) [compound 12]  Peptide exchange  “+++” (≥50 = +++)
3  120 (ALLGIPLTLV; listed as Homo sapiens) [compound 120]  Peptide exchange  “+++” (≥50 = +++)
4  537 (TLAPGEVLRSV; listed as Homo sapiens) [compound 537]  Peptide exchange  “+++” (≥50 = +++)

Input: Requested field: Peptide exchange. Item: 216 (NLWEDPYYL; listed as Homo sapiens) [compound 216]
Output: “+++” (≥50 = +++)

Input: Another substance to check: 496 (FLVEKQPPQV; listed as Homo sapiens) [compound 496]
Output: “+++” (≥50 = +++)

Input: Similarly, 79 (SLFIGEKAVLL; listed as Homo sapiens) [compound 79] ?
Output: “+++” (≥50 = +++)
